Target Desc: KRAS G12D (Homo sapiens, UniProt P01116, G12D)
Construct: AsPc-1-KRAS (G12D)-HiBit-KI cell (Pharmaron); host or cells: AsPc-1-KRAS (G12D)-HiBit-KI cells (HiBiT knock-in at the endogenous KRAS locus)
Sequence (P01116 1-188 isoform P01116-2 G12D): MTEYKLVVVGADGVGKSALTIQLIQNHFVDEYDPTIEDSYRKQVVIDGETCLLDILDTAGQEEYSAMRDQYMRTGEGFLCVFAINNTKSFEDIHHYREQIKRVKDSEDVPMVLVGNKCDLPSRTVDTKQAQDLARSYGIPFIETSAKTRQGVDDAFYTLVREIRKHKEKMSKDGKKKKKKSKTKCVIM
Protocol Text: KRAS G12D HiBit assay
Format: cell-based
Cond: AsPc-1-KRAS (G12D)-HiBit-KI cell, compound treatment for 24 hours, absolute DC50; class symbols
Known DC50 of a selection of compounds

Below, 3 compounds whose answers are already recorded.
CCc1c(F)ccc2cc(O)cc(-c3ncc4c(N5CCC[C@@](C)(O)C5)nc(OC[C@@]56CCCN5[C@H](CCCN5CCC7(CC5)CC(N5CCC(c8ccc9c(c8)n(C)c(=O)n9C8CCC(=O)NC8=O)CC5)C7)CC6)nc4c3F)c12 (some centres unmarked); < 100 nM
C#Cc1c(F)ccc2cccc(-c3ncc4c(N5CCC[C@@](C)(O)C5)nc(OCC5(CN6CCC(N7CCN(c8ccc9c(c8)n(C)c(=O)n9C8CCC(=O)NC8=O)CC7)CC6)CC5)nc4c3F)c12 (some centres unmarked); > 300 nM
CCc1c(F)ccc2cc(O)cc(-c3ncc4c(N5CCC[C@@](C)(O)C5)nc(OC[C@@]56CCCN5[C@H](COC(=O)N5CCC7(CC5)CC(CN5CCC(c8ccc9c(c8)n(C)c(=O)n9C8CCC(=O)NC8=O)CC5)C7)CC6)nc4c3F)c12 (some centres unmarked); < 100 nM

[Q] Would you kindly share the measured DC50 for C#Cc1c(F)ccc2cc(O)cc(-c3ncc4c(N5CCOCC5)nc(OCC5(CN6CCN(CC7CCN(c8ccc9c(c8)n(C)c(=O)n9C8CCC(=O)NC8=O)CC7)CC6)CC5)nc4c3F)c12 (centres unmarked) ?
[A] > 300 nM

[Q] Which DC50 reading was recorded for the compound CCc1c(F)ccc2cc(O)cc(-c3ncc4c(N5CCC[C@@](C)(O)C5)nc(OC[C@@]56CCCN5[C@H](COC(=O)Nc5ccc(N7CCC(c8ccc9c(c8)n(C)c(=O)n9C8CCC(=O)NC8=O)CC7)cc5)CC6)nc4c3F)c12 (some centres unmarked) ?
[A] < 100 nM

[Q] I have this compound here, C#Cc1c(F)ccc2cc(O)cc(-c3ncc4c(N5CCC[C@@](C)(O)C5)nc(OC[C@@]56CCCN5[C@@H](COC(=O)N5CCC(CN7CCC(c8ccc9c(c8)n(C)c(=O)n9C8CCC(=O)NC8=O)CC7)CC5)CC6)nc4c3F)c12 (some centres unmarked) , and I need its recorded DC50.
[A] < 100 nM

[Q] Reported DC50 for CCc1c(F)ccc2cc(O)cc(-c3ncc4c(N5CCC[C@@](C)(O)C5)nc(OC[C@@]56CCCN5[C@H](COC(=O)N5CCC(CN7CCC(c8ccc9c(c8)n(C)c(=O)n9C8CCC(=O)NC8=O)CC7)C5)CC6)nc4c3F)c12 (some centres unmarked) : what is it?
[A] < 100 nM

[Q] Would you kindly share the measured DC50 for C#Cc1c(F)ccc2cccc(-c3ncc4c(N5CCC[C@@](C)(O)C5)nc(OC[C@]56CCCN5[C@@H](COC(=O)N5CCC(CN7CCC(c8ccc9c(c8)n(C)c(=O)n9C8CCC(=O)NC8=O)CC7)CC5)CC6)nc4c3F)c12 (some centres unmarked) ?
[A] > 300 nM

[Q] Name the reported DC50 value associated with the compound CCc1c(F)ccc2cc(O)cc(-c3ncc4c(N5CCC[C@H](O)C5)nc(OC[C@@]56CCCN5[C@H](COC(=O)N5CCC7(CC5)CC(N5CCC(c8ccc9c(c8)n(C)c(=O)n9C8CCC(=O)NC8=O)CC5)C7)CC6)nc4c3F)c12 (some centres unmarked)
[A] < 100 nM

[Q] // query DC50 value for entry C#Cc1c(F)ccc2cc(O)cc(-c3ncc4c(N5CCC[C@@](C)(O)C5)nc(OCC5(CN6CCC7(CC6)CCN(c6cccc8c6n(C)c(=O)n8C6CCC(=O)NC6=O)CC7)CC5)nc4c3F)c12 (some centres unmarked)
[A] < 100 nM

[Q] Please report the recorded DC50 for CCc1c(F)ccc2cc(O)cc(-c3ncc4c(N5CCC[C@@](C)(O)C5)nc(OC[C@@]56CCCN5[C@H](COC(=O)N5CC7(CC(N8CCC(c9ccc%10c(c9)n(C)c(=O)n%10C9CCC(=O)NC9=O)CC8)C7)C5)CC6)nc4c3F)c12 (some centres unmarked) .
[A] < 100 nM

[Q] Suppose we examine the compound CCc1c(F)ccc2cc(O)cc(-c3ncc4c(N5CCC[C@@](C)(O)C5)nc(OC[C@]56CCCN5[C@H](COC(=O)N5CCC(CCOc7ccc8c(c7)n(C)c(=O)n8C7CCC(=O)NC7=O)CC5)CC6)nc4c3F)c12 (some centres unmarked) ; what DC50 value has been reported?
[A] < 100 nM

[Q] Look up DC50 for this compound: C#Cc1c(F)ccc2cccc(-c3ncc4c(N5CCC[C@@](C)(O)C5)nc(OCC5(CN6CCC(N7CCC(c8ccc9c(c8)n(C)c(=O)n9C8CCC(=O)NC8=O)CC7)CC6)CC5)nc4c3F)c12 (some centres unmarked)
[A] > 300 nM

[Q] What value of DC50 has been recorded for this entry: C#Cc1c(F)ccc2cccc(-c3ncc4c(N5CCC[C@@](C)(O)C5)nc(OC[C@@]56CCCN5[C@H](COC(=O)N5CC(OCC7CCN(c8ccc9c(c8)n(C)c(=O)n9C8CCC(=O)NC8=O)CC7)C5)CC6)nc4c3F)c12 (some centres unmarked)
[A] > 300 nM

[Q] I have this compound here, C#Cc1c(F)ccc2cccc(-c3ncc4c(N5CCC[C@@](C)(O)C5)nc(OC[C@@]56CCCN5[C@H](COC(=O)NCCOCCOc5ccc7c(c5)n(C)c(=O)n7C5CCC(=O)NC5=O)CC6)nc4c3F)c12 (some centres unmarked) , and I need its recorded DC50.
[A] > 300 nM

[Q] Look up DC50 for this compound: CCc1c(F)ccc2cc(O)cc(-c3ncc4c(N5CCC[C@@](C)(O)C5)nc(OC[C@@]56CCCN5[C@H](COC(=O)Nc5ccc(CN7CCC(c8ccc9c(c8)n(C)c(=O)n9C8CCC(=O)NC8=O)CC7)cc5)CC6)nc4c3F)c12 (some centres unmarked)
[A] < 100 nM

[Q] Return reported DC50; argument: C#Cc1c(F)ccc2cc(O)cc(-c3ncc4c(N5CCC[C@@](C)(O)C5)nc(OCC5(CN6CCC(N7CCC(c8ccc9c(c8)n(C)c(=O)n9C8CCC(=O)NC8=O)CC7)CC6)CC5)nc4c3F)c12 (some centres unmarked)
[A] < 100 nM

// provenance: patent US12599672B2
